Test system: Prevotella bivia
ASSAY_SUMMARY: Antimicrobial activity against Prevotella bivia assessed as percent resistant isolates after 48 hrs by agar dilution method
Format: functional
Give measured Activity for each item. Keep answers brief.
Answers are plain numbers, in %.

Record excerpt, results attached:
Cc1ncc([N+](=O)[O-])n1CCO [METRONIDAZOLE]
0
COc1c(N2C[C@@H]3CCCN[C@@H]3C2)c(F)cc2c(=O)c(C(=O)O)cn(C3CC3)c12 [MOXIFLOXACIN]
11

Hi there! I need Activity for each item below, if you can.
1. CO[C@@]1(NC(=O)C2SC(=C(C(N)=O)C(=O)O)S2)C(=O)N2C(C(=O)O)=C(CSc3nnnn3C)CS[C@@H]21 (some centres undefined) [CEFOTETAN]
2. C[C@@H](O)[C@H]1C(=O)N2C(C(=O)O)=C(S[C@@H]3CN[C@H](C(=O)N(C)C)C3)[C@H](C)[C@H]12 [MEROPENEM]

output:
17
0

FYI, the data here is from ChEMBL document CHEMBL1671716.
